All values here come from ChEMBL document CHEMBL1146354.

assay: Inhibition of human topoisomerase 2 […]
pIC50: −log10 of the molar value.
property: pIC50

Use these answered entries as a reference point.
COc1cc([C@@H]2c3cc4c(cc3[C@@H](O[C@@H]3O[C@@H]5CO[C@@H](C)O[C@H]5[C@H](O)[C@H]3O)[C@H]3COC(=O)[C@H]23)OCO4)cc(OC)c1O [ETOPOSIDE] :: 4.11
CC(COc1ccc2c3c(oc2c1)C(=O)c1ccccc1C3=O)N(C)C (centres undefined) :: 5.92

a = COc1cccc2c1C(=O)c1c(O)c3c(c(O)c1C2=O)C[C@@](O)(C(=O)CO)C[C@@H]3O[C@H]1C[C@H](N)[C@H](O)[C@H](C)O1
b = CCN(CC)CCOc1ccc2c3c(oc2c1)C(=O)c1ncccc1C3=O
q: Between the entries labeled a and b , whose measured pIC50 is lower? # answer = label of selected item
a: a
(a: 5.57, b: 6.17)

====

# IC50 listing for each entry below
test system: HT-1080; assay: Cytotoxicity against human HT1080 cells by SRB assay; type: functional, cell-based
A number alone suffices; assume nM.

q: Look up IC50 for this molecule: CC(C)N(CCOc1cc2oc3c(c2cc1Cl)C(=O)c1cccnc1C3=O)C(C)C
a: 220

q: What do you have for CC(COc1ccc2c3c(oc2c1)C(=O)c1ncccc1C3=O)N(C)C (stereo not drawn) ?
a: 60

q: What do we get for CCN(CC)CCOc1cc2oc3c(c2cc1Cl)C(=O)c1cccnc1C3=O ?
a: 150

q: Let us now turn to CCN(CC)CCOc1ccc2c3c(oc2c1)C(=O)c1ncccc1C3=O
a: 70

q: Would you kindly repeat that for CC(COc1cc2oc3c(c2cc1Cl)C(=O)c1cccnc1C3=O)N(C)C (stereo not drawn) ?
a: 110

q: Thanks! And CC(CN(C)C)Oc1ccc2c3c(oc2c1)C(=O)c1ccccc1C3=O (stereo not drawn) ?
a: 270

q: Now consider CC(C)N(CCOc1ccc2c3c(oc2c1)C(=O)c1ccccc1C3=O)C(C)C .
a: 1020

====

organism: Homo sapiens; assay: Inhibition of human topoisomerase 2-mediated KDNA decatenation activity at 5 uM after 10 mins relative to control
property: inhibition (%)

COc1cccc2c1C(=O)c1c(O)c3c(c(O)c1C2=O)C[C@@](O)(C(=O)CO)C[C@@H]3O[C@H]1C[C@H](N)[C@H](O)[C@H](C)O1 :: 78
CC(COc1ccc2c3c(oc2c1)C(=O)c1ncccc1C3=O)N(C)C (configuration not stated) :: 67

a = CCN(CC)CCOc1ccc2c3c(oc2c1)C(=O)c1ncccc1C3=O
b = CC(COc1cc2oc3c(c2cc1Cl)C(=O)c1cccnc1C3=O)N(C)C (configuration not stated)
q: Which one would you say has the larger inhibition value: a , or b ? Bench note: the answer is the label of the chosen record.
a: a
(a: 100%, b: 59%)

====

Listing: pIC50 of selected compounds
system: HCT-116; test: Cytotoxicity against human HCT116 cells by SRB assay; type: functional, cell-based
Scale: negative log10 of molar concentration, which is what pIC50 denotes.

Here is how some compounds turned out for pIC50.
CC(CN(C)C)Oc1cc2oc3c(c2cc1Cl)C(=O)c1cccnc1C3=O (stereo not drawn) :: 6.89
CCN(CC)CCOc1cc2oc3c(c2cc1Cl)C(=O)c1ccccc1C3=O :: 5.82
CC(C)N(CCOc1ccc2c3c(oc2c1)C(=O)c1ccccc1C3=O)C(C)C :: 5.86

q: Any idea what pIC50 was measured for COc1cc([C@@H]2c3cc4c(cc3[C@@H](O[C@@H]3O[C@@H]5CO[C@@H](C)O[C@H]5[C@H](O)[C@H]3O)[C@H]3COC(=O)[C@H]23)OCO4)cc(OC)c1O [ETOPOSIDE] ?
a: 5.73

q: Item: CCN(CC)CCOc1ccc2c3c(oc2c1)C(=O)c1ccccc1C3=O
a: 5.77

q: Next compound up: CC(CN(C)C)Oc1ccc2c3c(oc2c1)C(=O)c1ncccc1C3=O (stereo not drawn)
a: 7.10

q: # iterate: CCN(CC)CCOc1ccc2c3c(oc2c1)C(=O)c1ncccc1C3=O
a: 7.22
